pKi: −log10 of the molar value.
# collection of pKi values tested on caspase-1 (Homo sapiens)
# Sequence (P29466 120-297 limits assumed, species assumed): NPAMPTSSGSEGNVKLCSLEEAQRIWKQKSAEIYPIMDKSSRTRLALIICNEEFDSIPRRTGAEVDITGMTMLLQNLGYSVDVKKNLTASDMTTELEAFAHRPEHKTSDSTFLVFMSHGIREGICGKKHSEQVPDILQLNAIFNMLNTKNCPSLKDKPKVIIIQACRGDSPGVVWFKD
# Sequence (P29466 317-404 limits assumed, species assumed): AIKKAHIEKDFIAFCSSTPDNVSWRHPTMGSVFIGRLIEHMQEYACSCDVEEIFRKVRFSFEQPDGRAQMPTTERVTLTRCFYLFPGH

Prompt line: Name the recorded pKi of the item CC(=O)Nc1ccc(C(=O)N[C@H](C(=O)N2CCC[C@H]2C(=O)N[C@H](C=O)CC(=O)O)C(C)(C)C)c(Cl)c1 [II-43] in your answer.
Response line: > 8.00

Prompt line: Name the recorded pKi of the item COc1cccc(C(=O)N[C@@H](CC(F)(F)F)C(=O)N2CCC[C@H]2C(=O)N[C@H](C=O)CC(=O)O)c1C [II-21] in your answer.
Response line: > 8.00

Prompt line: Name the recorded pKi of the item CC(C)(C)[C@H](NC(=O)c1ccccc1Cl)C(=O)N1[C@@H]2CC[C@@H](C2)[C@H]1C(=O)NC(C=O)CC(=O)O (stereo in doubt) [II-56] in your answer.
Response line: > 8.00

====

pKi: −log10 of the molar value.
So I've got a bunch of molecules here, and I need their pKi values.

Prompt line: Check caspase-8 (Homo sapiens) data and give pKi for CC(C)[C@H](NC(=O)c1ccc(N)c(Cl)c1)C(=O)N1[C@@H]2CC[C@@H](C2)[C@H]1C(=O)N[C@H](C=O)CC(=O)O (stereo in doubt) .
Response line: > 8.00

Prompt line: Check caspase-8 (Homo sapiens) data and give pKi for CC(C)C(=O)Nc1cccc(C(=O)N[C@H](C(=O)N2C3CC[C@@H](C3)[C@H]2C(=O)N[C@H](C=O)CC(=O)O)C(C)(C)C)c1Cl (stereo in doubt) .
Response line: > 8.00

Prompt line: Check caspase-8 (Homo sapiens) data and give pKi for COc1cccc(C(=O)N[C@H](C(=O)N2CCC[C@H]2C(=O)N[C@H](C=O)CC(=O)O)C(C)(C)C)c1C .
Response line: > 8.00

Prompt line: Check caspase-8 (Homo sapiens) data and give pKi for CC(C)[C@H](NC(=O)c1ccccc1C(F)(F)F)C(=O)N1CCC[C@H]1C(=O)N[C@H](C=O)CC(=O)O .
Response line: > 8.00

Prompt line: Check caspase-8 (Homo sapiens) data and give pKi for Cc1ccncc1C(=O)N[C@H](C(=O)N1CCC[C@H]1C(=O)N[C@H](C=O)CC(=O)O)C(C)C .
Response line: 7.52 to 7.68

Prompt line: Check caspase-8 (Homo sapiens) data and give pKi for CC(C)(C)[C@H](NC(=O)c1cccc(OC2CC2)c1Cl)C(=O)N1CCC[C@H]1C(=O)N[C@H](C=O)CC(=O)O .
Response line: > 8.00

Prompt line: Check caspase-8 (Homo sapiens) data and give pKi for CCC(=O)Nc1ccc(C(=O)N[C@H](C(=O)N2C3CC[C@@H](C3)[C@H]2C(=O)NC(C=O)CC(=O)O)C(C)(C)C)c(Cl)c1 (stereo in doubt) .
Response line: > 8.00

Prompt line: Check caspase-8 (Homo sapiens) data and give pKi for CC(C)(C)[C@H](NC(=O)c1nccc2ccccc12)C(=O)N1[C@@H]2CC[C@@H](C2)[C@H]1C(=O)N[C@H](C=O)CC(=O)O (stereo in doubt) .
Response line: 7.70 to 8.00

Prompt line: Check caspase-8 (Homo sapiens) data and give pKi for CC(C)[C@H](NC(=O)c1c(Cl)cccc1Cl)C(=O)N1CCC[C@H]1C(=O)N[C@H](C=O)CC(=O)O .
Response line: 7.70 to 8.00

Prompt line: Check caspase-8 (Homo sapiens) data and give pKi for CC(C)[C@H](NC(=O)c1ccccc1Cl)C(=O)N1CCC[C@H]1C(=O)N[C@H](C=O)CC(=O)O .
Response line: > 8.00

Prompt line: Check caspase-8 (Homo sapiens) data and give pKi for COc1ccc(C)c(C(=O)N[C@H](C(=O)N2CCC[C@H]2C(=O)N[C@H](C=O)CC(=O)O)C(C)C)c1 .
Response line: 7.52 to 7.68
